system: CHO; test: The sensitizing capacity for colchicine treatment of parental (PAR)CHO cells at concentration 1.0 (mg/L); format: functional, Cricetulus griseus
outcome.measure: Activity
A bare number is all that is needed in reply.

Sample answers from the record:
CC[C@@H](C)[C@H]1C(=O)NCC(=O)N(C)[C@@H](C(C)C)C(=O)N[C@@H](Cc2ccc(OC)cc2)C(=O)O[C@@H](C)C(=O)N2CCCC[C@H]2C(=O)N(C)[C@@H](C(C)C)C(=O)N[C@@H](C(C)C)C(=O)N(C)[C@H](CC(=O)N[C@H](C(=O)OC(C)(C)C)C(C)C)C(=O)N(C)[C@@H]([C@@H](C)CC)C(=O)N1C 11
CC[C@H](C)[C@H]1C(=O)NCC(=O)N(C)[C@@H](C(C)C)C(=O)N[C@@H](Cc2ccc(OC)cc2)C(=O)O[C@H](C)C(=O)N2CCCC[C@H]2C(=O)N(C)[C@@H](C(C)C)C(=O)N[C@@H](C(C)C)C(=O)N(C)[C@@H](CC(=O)OC23CC4CC(CC(C4)C2)C3)C(=O)N(C)[C@@H]([C@@H](C)CC)C(=O)N1C 6

Now consider the entry below.
Note to self: Activity recorded for CC[C@H](C)[C@H]1C(=O)NCC(=O)N(C)[C@@H](C(C)C)C(=O)N[C@@H](Cc2ccc(OC)cc2)C(=O)O[C@H](C)C(=O)N2CCCC[C@H]2C(=O)N(C)[C@@H](C(C)C)C(=O)N[C@@H](C(C)C)C(=O)N(C)[C@@H](CC(=O)OCCC(C)C)C(=O)N(C)[C@@H]([C@@H](C)CC)C(=O)N1C was 7.8
